# Lookup of reported pIC50 keyed by entry
# Test system: Daudi cells
# Assay: Proliferation inhibitory activity on hematologic neoplasm cells, Daudi
# Type: cell-based
# Measurement Context: Homo sapiens, Daudi, 72 h; 3 days, Alamar Blue
pIC50: −log10 of the molar value.
Attribute Measured: pIC50

>>> result_value("OCCN1CCN(c2nc(N3CCOCC3)nc(-n3c(C(F)F)nc4ccccc43)n2)CC1")
6.49
>>> result_value("CC(=O)N1CCN(c2nc(N3CCOCC3)nc(-n3c(C(F)F)nc4ccccc43)n2)CC1")
6.63
>>> result_value("COc1ccc2c(c1)nc(C(F)F)n2-c1nc(N2CCOCC2)nc(N2CCOCC2)n1")
7.88
>>> result_value("COc1cccc2c1nc(C(F)F)n2-c1nc(N2CCOCC2)cc(N2C[C@@H](C)O[C@@H](C)C2)n1")
6.40
>>> result_value("O=C1CCN(c2nc(N3CCOCC3)nc(-n3c(C(F)F)nc4ccccc43)n2)CCN1")
6.72
>>> result_value("Nc1nc2ccccc2n1-c1nc(N2CCOCC2)nc(N2CCOCC2)n1")
6.10
>>> result_value("Cc1nc2ccccc2n1-c1nc(N2CCOCC2)nc(N2CCOCC2)n1")
6.08
>>> result_value("FC(F)c1nc2ccccc2n1-c1nc(N2CCOCC2)nc(N2CCOCC2)n1")
6.98
